Biological target: T1, human TREM2 Fc fusion (entire TREM2 ECD; only one Fc arm fused to TREM2) (human, UniProt Q9NZC2 19-174)
T1 construct: also called huTREM2-Fc; recombinant hTREM2
T1 sequence: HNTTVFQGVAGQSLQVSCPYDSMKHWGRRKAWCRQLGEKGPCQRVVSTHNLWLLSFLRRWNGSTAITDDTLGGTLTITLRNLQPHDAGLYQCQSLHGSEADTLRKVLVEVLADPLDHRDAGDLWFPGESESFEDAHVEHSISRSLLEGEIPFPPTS
Assay: BLI, Fab, monovalent
Please use Condition met for Kd under 10 nM and Condition not met for everything else, ties included.

Below are worked cases with known answers.
binder	category
AL2p-49 (antibody, V domains shown, Fab and IgG formats under one id) VH: EVQLVQSGAEVKKPGSSVKVSCKASGYAFSSDWMNWVRQAPGQGLEWMGRIYPGEGDTNYARKFHGRVTITADESTSTAYMELSSLRSEDTAVYYCARLLRNKPGESYAMDYWGQGTLVTVSS VL: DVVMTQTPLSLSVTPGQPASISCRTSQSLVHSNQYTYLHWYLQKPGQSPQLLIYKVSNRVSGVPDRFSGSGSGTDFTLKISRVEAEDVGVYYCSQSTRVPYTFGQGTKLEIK	Condition not met
AL2p-22 (antibody, V domains shown, Fab and IgG formats under one id) VH: QVQLVQSGAEVKKPGSSVKVSCKASGYAFSSHWMNWVRQAPGQGLEWMGRIYPGDGDTNYAYKFQGRVTITADESTSTAYMELSSLRSEDTAVYYCARLLRNQPGESYAMDYWGQGTLVTVSS VL: GVVMTQTPLSLSVTPGQPASISCRSSRSLVHSNGYTYLHWYLQKPGQSPQLLIYKVSNRRSGVPDRFSGSGSGTDFTLKISRVEAEDVGVYYCSQSTRVPYTFGQGTKLEIK	Condition met
AL2p-39 (antibody, V domains shown, Fab and IgG formats under one id) VH: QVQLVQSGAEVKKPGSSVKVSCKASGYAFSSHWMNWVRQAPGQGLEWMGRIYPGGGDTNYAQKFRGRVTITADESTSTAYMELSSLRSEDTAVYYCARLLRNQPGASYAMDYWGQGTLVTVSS VL: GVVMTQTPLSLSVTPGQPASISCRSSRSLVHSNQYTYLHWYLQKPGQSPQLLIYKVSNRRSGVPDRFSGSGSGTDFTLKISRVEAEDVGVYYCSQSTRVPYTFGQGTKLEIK	Condition met

Attention now turns to another entry.
Find out if reported Kd for AL2p-6 (antibody, V domains shown, AL2p-h50 variant; Fab and IgG formats under one id) VH: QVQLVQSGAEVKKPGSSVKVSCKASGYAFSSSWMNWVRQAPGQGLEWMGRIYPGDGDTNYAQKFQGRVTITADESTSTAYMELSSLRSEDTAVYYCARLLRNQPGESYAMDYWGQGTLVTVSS VL: DVVMTQTPLSLSVTPGQPASISCRSSQSLVHSNWYTYLHWYLQKPGQSPQLLIYKVSNRFSGVPDRFSGSGSGTDFTLKISRVEAEDVGVYYCSQSTRVPYTFGQGTKLEIK is less than 10 nM
Condition not met
